Each entry below carries its recorded WBC.
- Species: Rattus norvegicus
- protocol_text: Open TG-GATES - Regimen: Single
- Type: toxicity, organism-based, Sprague-Dawley
- Design: regimen Single, gender Male, age 6 weeks
- test_context: in vivo, po, 0 mg/kg, 9 h, tissue Blood, route gavage, dose level Control
Quick reminder: number only, in x10_2/uL, skip the unit.

## Task State, in one line, measured WBC of CCOc1ccc(NC(=O)CC(C)O)cc1 (stereo unspecified)
## Result 87.3

## Task Complete the entry with WBC for Cc1ccc(C)c(OCCCC(C)(C)C(=O)O)c1
## Result 69.8

## Task Please supply the value of reported WBC for the item COc1cc2c(c(OC)c1OC)-c1ccc(OC)c(=O)cc1[C@@H](NC(C)=O)CC2
## Result 88.7

## Task // Input: CC/C(=C(\c1ccccc1)c1ccc(OCCN(C)C)cc1)c1ccccc1 . Output its WBC only.
## Result 73.7

## Task Return WBC (reported value) for this molecule: O=C(CCCN1CCC(O)(c2ccc(Cl)cc2)CC1)c1ccc(F)cc1
## Result 96.1

## Task State, in one line, measured WBC of CN(C)CCCN1c2ccccc2CCc2ccc(Cl)cc21
## Result 86.1

## Task Return WBC for the following molecule: C[C@@H]1C[C@H]2[C@@H]3CCC4=CC(=O)C=C[C@]4(C)[C@@]3(F)[C@@H](O)C[C@]2(C)[C@@]1(O)C(=O)CO
## Result 104.7

## Task Please look at this molecule and report its WBC: CN(C)CCN(Cc1cccs1)c1ccccn1
## Result 69.3

## Task Determine its reported WBC: CN1C(=O)CN=C(c2ccccc2)c2cc(Cl)ccc21
## Result 117.7

## Task Output measured WBC for this item: CCCNC(=O)NS(=O)(=O)c1ccc(Cl)cc1 [CHLORPROPAMIDE]
## Result 91.1

## Task Answer with the recorded WBC for the molecule listed here: NNC(=O)c1ccncc1
## Result 101.6

## Task State its WBC for this molecule: NC(N)=Nc1nc(CSCCC(N)=NS(N)(=O)=O)cs1
## Result 106.4

## Task In one line, give reported WBC of the entry CCOC(=O)CCC(=O)O[C@H]1[C@H](O[C@@H]2[C@@H](C)[C@H](O[C@H]3C[C@@](C)(OC)[C@@H](O)[C@H](C)O3)[C@@H](C)C(=O)O[C@H](CC)[C@@](C)(O)[C@H](O)[C@@H](C)C(=O)[C@H](C)C[C@@]2(C)O)O[C@H](C)C[C@@H]1N(C)C [ERYTHROMYCIN ETHYLSUCCINATE] .
## Result 106.6

Numbers sourced from ChEMBL document CHEMBL3885861.
